In this section, each of the compounds is paired with its reported viability at 28.5 h, 10 µM.
assay: in vitro; conditions: human, hela cells, % viability
Numbers only here, please. The scale is %.

CCOc1ccc(-n2c(SC/C=C/c3ccccc3)nnc2-c2cccnc2)cc1
106

Could you tell me which viability at 28.5 h, 10 µM is on file for CCCCC1C(=O)N(C)CCN1C(=O)c1cc(C)c(CC)n(C)c1=O (stereo not shown) ?
91.2

Could you tell me which viability at 28.5 h, 10 µM is on file for Nc1ncnc2c1nc(Br)n2[C@H]1C[C@@H](O)[C@@H](CO)O1 ?
103

Could you tell me which viability at 28.5 h, 10 µM is on file for Cc1cc(NC(=O)N2CCN(c3ncccc3C#N)CC2)no1 ?
80.5
